Where do the numbers come from? From patent US5833994A.

Molecular target: Ah receptor (Cavia porcellus, UniProt Q6J287)
Sequence (Q6J287 1-846): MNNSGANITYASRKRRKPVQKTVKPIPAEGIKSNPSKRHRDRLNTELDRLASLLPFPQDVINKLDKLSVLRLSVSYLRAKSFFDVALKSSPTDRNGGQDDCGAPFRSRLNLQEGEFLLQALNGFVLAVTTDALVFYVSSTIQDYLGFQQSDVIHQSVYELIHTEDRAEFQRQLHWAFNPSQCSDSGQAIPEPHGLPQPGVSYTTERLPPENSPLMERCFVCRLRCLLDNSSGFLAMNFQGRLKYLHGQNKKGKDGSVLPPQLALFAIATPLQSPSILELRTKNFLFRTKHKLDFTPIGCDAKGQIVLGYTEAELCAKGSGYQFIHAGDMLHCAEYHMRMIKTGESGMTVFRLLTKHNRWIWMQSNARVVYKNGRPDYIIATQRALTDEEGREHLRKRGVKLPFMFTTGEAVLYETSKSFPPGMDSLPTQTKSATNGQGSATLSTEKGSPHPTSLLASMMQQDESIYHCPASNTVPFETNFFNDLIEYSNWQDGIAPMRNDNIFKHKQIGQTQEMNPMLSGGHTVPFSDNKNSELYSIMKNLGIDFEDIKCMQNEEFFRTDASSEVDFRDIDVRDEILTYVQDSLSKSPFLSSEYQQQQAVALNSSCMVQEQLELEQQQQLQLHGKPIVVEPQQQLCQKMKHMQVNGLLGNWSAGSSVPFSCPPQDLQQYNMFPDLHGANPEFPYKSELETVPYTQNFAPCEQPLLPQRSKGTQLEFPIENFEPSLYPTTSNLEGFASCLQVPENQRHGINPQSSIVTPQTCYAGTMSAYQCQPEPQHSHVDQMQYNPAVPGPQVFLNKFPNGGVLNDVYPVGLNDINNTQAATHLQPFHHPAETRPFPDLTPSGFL
pIC50: −log10 of the molar value.

- COMPOUND: "O=c1c(O)c(-c2ccc(O)c(O)c2)oc2cc(O)cc(O)c12 [Quercetin]"
  MEASURED_TARGET: "Ah receptor (Cavia porcellus, UniProt Q6J287)"
  pIC50: "~5.00"
